Binary classification by logP, with 1 as an inclusive lower bound for MET; all other cases are NOT MET.

1) CN(C)S(=O)(=O)c1ccnc2ccccc12 = MET

Request: # bool: logP of NS(=O)(=O)c1ccc2ccccc2n1 >= 1
Response: MET

Request: Given CN(C)S(=O)(=O)c1ccc2cccnc2c1 , state whether its logP is at least 1.
Response: MET

----------
resultType: logP
Answers are plain numbers.

Some solved entries appear below for comparison.
1. CN(C)S(=O)(=O)c1cccc2ncccc12 = 1.56
2. CNS(=O)(=O)c1ccc2cccnc2c1 = 1.02
3. CNS(=O)(=O)c1ccc2ncccc2c1 = 1
4. CNS(=O)(=O)c1ccc2ccccc2n1 = 1.57
5. CN(C)S(=O)(=O)c1ccc2ccccc2n1 = 1.98

Now take the following molecule into account.
Request: Supply logP value. Item: NS(=O)(=O)c1cccc2ncccc12
Response: 0.6

Measured values drawn from the SangsterLogP compilation for this set.
